- Test system: human Hep G2 cells (ATCC HB-8065)
- assay-name: Cytotoxicity in Hep G2 cells (CellTiter-Glo)
- Type: cell-based
- measurement-setup: Hep G2 cells, 100 μM test article, 24-hour exposure
Structures can show the parent of a compound that is named as a salt.
parameter: % Cell Viability (%)
Supply the numeric figure in %, leaving out any unit text.

Study these solved cases before continuing.
compound | endpoint-result
Cc1ccc(N2CCN(C)CC2)cc1C(=O)N[C@H](C)c1cccc(N2CCN(C)CC2)c1 [Example 104] | 82.7
C[C@@H](NC(=O)c1cc(C2=CCNC2)ccc1Cl)c1cccc2ccccc12 [Example 146, Hydrochloride Salt] | 0.2
Cc1ccc(N2CCN(C)CC2)cc1C(=O)N[C@H](C)c1cc(F)cc(-c2cnn(C)c2)c1 | 66.7
Cc1ccc(N2CCCN(S(N)(=O)=O)CC2)cc1C(=O)N[C@H](C)c1cccc2ccccc12 | 77.2
Cc1ccc(N2CCN(C3COC3)CC2)cc1C(=O)N[C@H](C)c1cccc2ccccc12 | 61.1

Input line: Form: Entry = CNC(=O)c1cc(-c2cc([C@@H](C)NC(=O)c3cc(N4CCN(C)CC4)ccc3C)ccc2OC)cs1 | System = human Hep G2 cells (ATCC HB-8065) | % Cell Viability = ____
Output line: 47.2

Input line: Continue with Cc1ccc(N2CCN(C)CC2)cc1C(=O)N[C@H](C)c1cccc(-c2cccc(C(=O)NCCCN(C)C)c2)c1
Output line: 41.9
